test system: MALME-3M melanoma; assay: NCI-60 one-dose screen, 48 h (100 = growth as untreated, 0 = no growth, -100 = all killed); settings: 10 µM unless noted
About 83,000 compounds went through this panel and 20% of them were active in at least one assay; those are over-represented in the sample as a whole.
Catalogue of compounds with associated growth
Note: unit % is implicit; provide only the numeric part.

compound	measurement.target	unit	val
Cc1ccccc1CCO	MALME-3M melanoma	%	92.5
COc1cc(-c2nc3ccccc3s2)ccc1NC(=O)COc1ccc(Cl)cc1	MALME-3M melanoma	%	48.3
Cc1cc(N/N=C/c2nc(-c3ccc(Cl)cc3)oc2C)c2cc(Br)ccc2n1	MALME-3M melanoma	%	7.27
Cc1cc(=O)oc2cc(Oc3nc(-c4cccs4)cn4c(-c5cccs5)cnc34)ccc12	MALME-3M melanoma	%	39.1
CN(C)c1ccc(/C=C\C2=[N+](C)c3ccccc3C2(C)C)cc1	MALME-3M melanoma	%	20.8

Read the next record carefully.
Data request: Dear colleague, I am looking for the recorded growth of the following compound: CC(=O)OCC(=O)C1CCC=CC1OC(C)=O (stereo unspecified)
Data returned: 74.2

====

test system: RPMI-8226 leukemia; assay: NCI-60 one-dose screen, 48 h (100 = growth as untreated, 0 = no growth, -100 = all killed); settings: 10 µM unless noted
The panel holds about 83,000 compounds, 20% with a hit somewhere; the sample as a whole holds those more often.
value.kind: growth (%)
Note: unit % is implicit; provide only the numeric part.

mol.smiles	growth / %
CCCNc1nc(SC)nc(-c2cccc(N)c2)c1C#N	103
CC/C(Cc1ccccc1)=C(\c1ccc(OCCN2CCCC2)cc1)c1ccc(OC(C)=O)cc1	60.2
CCN(CC)Cc1cc(Nc2c3ccccc3nc3cc(Cl)ccc23)ccc1O	-21.1
Nc1cc(O)cc2cccnc12	68.9
COc1cc2nc3cc([N+](=O)[O-])ccc3c(NCCCNCC(C)(C)O)c2cc1OC	-9.27

Read the next record carefully.
Data request: Entry COC1=CC(=O)C(OC)=C(OC)C1=O , system RPMI-8226 leukemia: what growth was measured?
Data returned: 67.1

====

Tested on: LOX IMVI melanoma
Test: NCI-60 one-dose screen, 48 h
Details: 10 µM unless noted
Protocol: Growth inhibition of the LOX IMVI human tumor cell line is measured as a screen for anti-cancer activity. Cells are grown in 96 well plates and exposed to the test compound for 48 hours. Compounds are tested at a single concentration, which is 10^-5 M for most compounds. The reported endpoint is percent growth (GI% or GIPRCNT), where numbers from 0 - 100% represent growth inhibition, and numbers from -100% - 0 represent cell death. For example, a value of 40 represents 60% growth inhibition. […]
The panel holds about 83,000 compounds, 20% with a hit somewhere; the sample as a whole holds those more often. The source made the active and inactive calls. How the source made its calls: active means growth percent below 10; inactive means the rest.
Allowed answers: True = active, False = inactive

Worked cases, answers included:
compound	assigned.class
CN1CCN(Cc2ccc(NC(=O)c3cncc(C#Cc4cncc5nccnc45)c3)cc2C(F)(F)F)CC1	True
COC1C/C(=N\O)C2OC(c3ccccc3)OCC2O1 (stereo not given)	False
C=C1C(=O)O[C@H]2[C@H]1CC/C(Cn1cc(Cn3ccc4cc(Cl)ccc43)nn1)=C\CC[C@@]1(C)O[C@@H]21	True

Data request: What was the test verdict on Cc1ccc(C2CC3c4ccccc4C2C2CCCCN32)cc1 (stereo not given) ?
Data returned: False

Data request: What was the test verdict on C#Cc1nc(Nc2cc(C)[nH]n2)c2ccccc2n1 ?
Data returned: True

Data request: What was the test verdict on O=C(Nc1ccc(CN2CCOCC2)cc1)c1[nH]ncc1Nc1ncnc2sccc12 ?
Data returned: True

Data request: What was the test verdict on O=C(CO[N+](=O)[O-])Nc1ccc(C(=O)/C=C/c2ccc(Cl)cc2)cc1 ?
Data returned: True

Data request: What was the test verdict on O=C(Nc1ccc(F)cc1)Nc1ccc(CCO)cc1 ?
Data returned: False

Data request: What was the test verdict on CC1=N/C(=C\c2cccc(Br)c2)C(=O)O1 ?
Data returned: False

Data request: What was the test verdict on CCN(CC)CCC(=O)Nc1ccc(Cn2nnc3c2C(=O)c2nnn(Cc4ccc(NC(=O)CCN(CC)CC)cc4)c2C3=O)cc1 ?
Data returned: True

Data request: What was the test verdict on Fc1ccc(Cc2ccc(F)cc2)cc1 ?
Data returned: False

Data request: What was the test verdict on O=C(CN1CCOCC1)Nc1ccc(Cn2nnc3c2C(=O)c2nnn(Cc4ccc(NC(=O)CN5CCOCC5)cc4)c2C3=O)cc1 ?
Data returned: True

Data request: What was the test verdict on O=C(O)c1cccnc1Br ?
Data returned: False

Data request: What was the test verdict on CC1=C(C)C(=O)OC([C@](C)(O)[C@]2(O)CC[C@@]3(O)[C@@H]4C[C@H]5O[C@]56CC=CC(=O)[C@]6(C)[C@H]4CC[C@]23COC(=O)c2ccc(C)o2)C1 (stereo not given in full) ?
Data returned: True

Data request: What was the test verdict on O=C(/C=C\c1ccc2ccccc2n1)c1cc(Cl)ccc1O ?
Data returned: False

Data request: What was the test verdict on O=C(CN1CCN(c2cc3c(cc2F)c(=O)c(C(=O)N/N=C/c2ccccc2)cn3C2CC2)CC1)N/N=C\c1ccccc1 ?
Data returned: False

Data request: What was the test verdict on CNc1cc2nc3cc(NC)c(C)cc3cc2cc1C ?
Data returned: True

Data request: What was the test verdict on CC(C)[C@@H]1CC[C@]2(C(=O)NCCCCN=C(N)N)CC[C@]3(C)[C@H](CC[C@@H]4[C@@]5(C)CCC(=O)C(C)(C)[C@@H]5CC[C@]43C)[C@@H]12 ?
Data returned: False

Data request: What was the test verdict on O=c1c2cccc3c(Nc4ccccn4)ccc(c32)c2nc3ccccc3n12 ?
Data returned: False

Data request: What was the test verdict on O=C(NC(Cc1ccccc1)C(=O)CCl)OCc1ccccc1 (stereo not given) ?
Data returned: True

====

tested on: OVCAR-3 ovarian; test: NCI-60 one-dose screen, 48 h; settings: 10 µM unless noted
About 83,000 compounds went through this panel and 20% of them were active in at least one assay; those are over-represented in the sample as a whole. Activity calls are given as the source filed them. Rule for the calls: active = growth percent below 10; inactive = the rest.
Allowed answers: yes (1) = active, no (0) = inactive

compound	assigned.class
CC(=O)C1=C(O)C=C2Oc3c(C(=O)/C=C/c4cc(Cl)cc(Cl)c4)c(O)c(C)c(O)c3[C@]2(C)C1=O	yes (1)

Let us examine a further case.
Data request: What was the test verdict on COc1ccc(C(=O)/C=C/c2c(Cl)c3c(c(OC)c2Cl)OCC(=O)N3)cc1 ?
Data returned: no (0)

====

tested on: NCI-H322M lung; experiment: NCI-60 one-dose screen, 48 h; conditions: 10 µM unless noted
This is part of a sample that, as a whole, favours compounds with a hit. Of some 83,000 tested, about 20% had one in any assay. The source made the active and inactive calls. The calls were made as follows: active = growth percent below 10; inactive = the rest.
Allowed answers: y = active, n = inactive

Worked cases, answers included:
mol.smiles	assigned.class
c1ccc2c(Nc3cccc4ccccc34)cccc2c1	n
O=C(O)c1cccnc1Br	n

Data request: What was the test verdict on NC(=S)N/N=C/c1ccc(OCc2ccccc2)cc1 ?
Data returned: n

Data request: What was the test verdict on O=C1NC(=O)C(CC(=O)n2c(-c3ccccc3)nc3ccccc32)C(=O)N1 ?
Data returned: n

Data request: What was the test verdict on COc1cc(/C=C2\CN(C(=O)CCN3CCC(=NO)CC3)C/C(=C\c3cc(OC)c(OC)c(OC)c3)C2=O)cc(OC)c1OC ?
Data returned: y

Data request: What was the test verdict on Oc1ccccc1N=Cc1c(O)ccc2ccccc12 ?
Data returned: n

====

Catalogue of compounds with associated growth
test system: SK-MEL-2 melanoma; assay: NCI-60 one-dose screen, 48 h (100 = growth as untreated, 0 = no growth, -100 = all killed); conditions: 10 µM unless noted
The panel holds about 83,000 compounds, 20% with a hit somewhere; the sample as a whole holds those more often.
Note: unit % is implicit; provide only the numeric part.

compound	growth (%)
Cn1c2ccccc2c2c3c(c4c5ccccc5n(CCCCCC#N)c4c21)C(=O)N(O)C3=O	34.5
O=S(=O)(NCCCNc1cc(-c2cn(-c3ccccc3)nc2-c2cccc(O)c2)ccn1)c1ccccc1	74.6
COc1ccc(/C=C2\CN(C(=O)CCN3CCC(=NO)CC3)C/C(=C\c3ccc(OC)cc3)C2=O)cc1	89.4
CCCCCCCCCCCCCC1=NCCN1CCO	114
CCC(=O)OCc1cccc(OC)c1	111
C=C1CC[C@@H]2[C@](C)(COC(C)=O)[C@H](OC(C)=O)CC[C@@]2(C)[C@@H]1CC(Nc1ccc(S(=O)(=O)Nc2ccc(Cl)nn2)cc1)C1=CCOC1=O (some centres undefined)	58.3
CN1CCN(Cc2ccc(NC(=O)c3cncc(C#Cc4cncc5nccnc45)c3)cc2C(F)(F)F)CC1	-13.2
COC(/C=C/c1ccc([N+](=O)[O-])cc1)OC	99

Read the next record carefully.
Data request: Dear colleague, I am looking for the recorded growth of the following compound: COc1cc2cc(COc3nccc(-c4ccc(Cl)cc4)n3)c(=O)[nH]c2cc1OC
Data returned: 96.7
